Experiment: Candida albicans growth inhibition, compound alone, dose response, counter-screen for antifungal drug resistance project, CaCi-2 strain, Alamar Blue, dry powder, set 2 (AID 488893)
Conditions: C. albicans CaCi-2 (fluconazole-resistant clinical isolate) growth, Alamar Blue fluorescence, 48 h; series mostly up to 26 µM
Potency and affinity values are given separately. Calls of active or inactive are those of the source.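 How the source made its calls: active means falling signal whose fitted half-maximal dose is at most ten times the top valid tested dose; inconclusive means flat curve with 30 to 70% inhibition, or poor fit; inactive means the rest, including changes in the wrong direction.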

Molecule: CC(C)CC(=O)N1CCN(c2ccnc3cc(Cl)ccc23)CC1
outcome: inactive

Molecule: O=C(O)Cn1nc(-c2ccccc2)c2ccccc21
outcome: inactive

Molecule: O=C(C1CCCCC1)N1CCN(c2ccnc3cc(Cl)ccc23)CC1
outcome: inactive

Molecule: Clc1ccc2c(N3CCNCC3)ccnc2c1
outcome: inactive

Molecule: O=C(c1ccc(Cl)cc1)N1CCN(c2ncnc3ccccc23)CC1
outcome: inactive

Molecule: O=C(C1CCCC1)N1CCN(c2ccnc3cc(Cl)ccc23)CC1
outcome: inactive

Molecule: N#Cc1ccc(N2CCN(C(=O)c3ccc(Cl)cc3)CC2)nc1
outcome: inactive

Molecule: O=C(c1ccc(Cl)cn1)N1CCN(c2ccnc3cc(Cl)ccc23)CC1
outcome: inactive

Molecule: CC1CN(c2ccnc3cc(Cl)ccc23)CCN1C(=O)c1ccc(Cl)cc1 (stereo unspecified)
outcome: inactive

Molecule: Cc1cc(N2CCN(C(=O)c3ccc(Cl)cc3)CC2)c2ccc(F)cc2n1
outcome: inactive

Molecule: O=C(c1ccc(Cl)cc1)C1CCN(c2ccnc3cc(Cl)ccc23)CC1
outcome: inactive
